System: OVCAR-3 ovarian
Test: NCI tumour cell line growth inhibition, 48 h; in the data active = GI50 below about 0.43 µM; inactive = the rest
Give one outcome, nothing more. List: 1.0 (active), 0.0 (inactive)

Consider the following illustrative entries.
Lab log entry: "CCC[CH2][Sn]1([CH2]CCC)[O]C(=O)C[S]1" — outcome as called in the assay?
0.0

Kindly provide the recorded test outcome for the following compound: "Cc1c(N2C(=O)/C(=C\c3ccc(O)cc3)N=C2c2ccccc2)c(=O)n(-c2ccccc2)n1C"
0.0

Answer briefly: the call reported for "Cc1sc2nc(-c3ccccn3)c(/C=N/N=C(N)N)n2c1C" in this assay.
0.0

Give the logged outcome of this assay for the following compound: "c1ccc(-c2n(Cc3ccc4ccccc4n3)c3ccccc3[n+]2Cc2ccc3ccccc3n2)cc1"
1.0

Check the results log: what was the call for "COc1ccc(-c2nnc3n(C)c(=O)c4ccccc4n23)cc1O" ?
1.0

Others:
Please share the test call associated with COC(=O)C1CC2(c3ccc(C)cc3)C(c3ccc(C)cc3)=C(c3ccc(C)cc3)C1(c1ccc(C)cc1)S2=O (configuration not stated) .
0.0

Values from PubChem BioAssay (NCI)
